# Tested on: Glucocorticoid receptor (Homo sapiens, UniProt P04150)
# Sequence (P04150 whole entry): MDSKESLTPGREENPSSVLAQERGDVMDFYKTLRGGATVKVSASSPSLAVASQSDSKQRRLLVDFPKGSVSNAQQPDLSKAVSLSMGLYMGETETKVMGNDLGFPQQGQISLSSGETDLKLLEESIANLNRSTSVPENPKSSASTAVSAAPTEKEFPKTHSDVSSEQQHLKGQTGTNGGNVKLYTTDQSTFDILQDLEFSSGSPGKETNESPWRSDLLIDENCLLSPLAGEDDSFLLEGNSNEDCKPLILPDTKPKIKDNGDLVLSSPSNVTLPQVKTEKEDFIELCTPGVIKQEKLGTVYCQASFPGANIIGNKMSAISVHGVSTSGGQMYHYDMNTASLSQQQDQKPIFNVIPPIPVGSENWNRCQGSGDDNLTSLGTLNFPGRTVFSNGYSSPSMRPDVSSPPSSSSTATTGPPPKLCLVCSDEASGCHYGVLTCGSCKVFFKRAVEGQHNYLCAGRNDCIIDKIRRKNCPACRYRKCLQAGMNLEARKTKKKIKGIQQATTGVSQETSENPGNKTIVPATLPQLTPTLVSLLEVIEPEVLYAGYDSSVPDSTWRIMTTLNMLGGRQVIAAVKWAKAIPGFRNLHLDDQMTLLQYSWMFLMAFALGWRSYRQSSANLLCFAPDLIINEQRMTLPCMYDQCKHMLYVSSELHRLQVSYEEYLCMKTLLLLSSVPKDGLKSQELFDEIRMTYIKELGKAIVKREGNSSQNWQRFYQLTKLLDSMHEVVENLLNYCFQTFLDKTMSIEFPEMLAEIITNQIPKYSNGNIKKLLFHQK
Assay endpoint: pEC50
To interpret pEC50, take it as minus log10 of a concentration measured in moles per litre.

Prompt: Can you share its pEC50? I mean this compound: `C[C@]12C=CC(=O)C=C1[C@@H](F)C[C@H]1[C@@H]3C[C@H]4O[C@@H](c5ccc(OC6=CCC(=O)N=N6)cc5)O[C@@]4(C(=O)CO)[C@@]3(C)C[C@H](O)[C@@]12F`
Response: 7.68

---

# Test system: PBMC
# Protocol description: Inhibition of TNFalpha release in human PBMC by ELISA assay
# Format: functional, cell-based
Assay endpoint: pIC50
To interpret pIC50, take it as minus log10 of a concentration measured in moles per litre.

Prompt: Can you share its pIC50? I mean this compound: `C[C@]12C=CC(=O)C=C1[C@@H](F)C[C@H]1[C@@H]3C[C@H]4O[C@@H](c5ccc(Oc6ccccc6)cc5)O[C@@]4(C(=O)CO)[C@@]3(C)C[C@H](O)[C@@]12F`
Response: 10.05

Prompt: Another compound to look at: `CSc1cccc(Sc2ccc([C@@H]3O[C@@H]4C[C@H]5[C@@H]6C[C@H](F)C7=CC(=O)C=C[C@]7(C)[C@@]6(F)[C@@H](O)C[C@]5(C)[C@]4(C(=O)CO)O3)cc2)c1`
Response: 10.00

Prompt: Another compound to look at: `C[C@]12C=CC(=O)C=C1[C@@H](F)C[C@H]1[C@@H]3C[C@H]4O[C@@H](c5ccc(CSc6ccc(O)cc6)cc5)O[C@@]4(C(=O)CO)[C@@]3(C)C[C@H](O)[C@@]12F`
Response: 10.22

Prompt: Another compound to look at: `C[C@]12C=CC(=O)C=C1[C@@H](F)C[C@H]1[C@@H]3C[C@H]4O[C@@H](c5ccc(OC6=CCC(=O)N=N6)cc5)O[C@@]4(C(=O)CO)[C@@]3(C)C[C@H](O)[C@@]12F`
Response: 9.92

Prompt: Another compound to look at: `C[C@]12C=CC(=O)C=C1[C@@H](F)C[C@H]1[C@@H]3C[C@H]4O[C@@H](c5ccc(SCc6ccccc6)cc5)O[C@@]4(C(=O)CO)[C@@]3(C)C[C@H](O)[C@@]12F`
Response: 9.80

Prompt: Another compound to look at: `C[C@]12C=CC(=O)C=C1[C@@H](F)C[C@H]1[C@@H]3C[C@H]4O[C@@H](c5ccc(Cc6ccccc6)cc5)O[C@@]4(C(=O)CO)[C@@]3(C)C[C@H](O)[C@@]12F`
Response: 9.77

Prompt: Another compound to look at: `C[C@]12C=CC(=O)C=C1[C@@H](F)C[C@H]1[C@@H]3C[C@H]4O[C@@H](c5ccc(CSc6cccc(O)c6)cc5)O[C@@]4(C(=O)CO)[C@@]3(C)C[C@H](O)[C@@]12F`
Response: 9.82

Prompt: Another compound to look at: CCC(=O)O[C@]1(C(=O)SCF)[C@H](C)C[C@H]2[C@@H]3C[C@H](F)C4=CC(=O)C=C[C@]4(C)[C@@]3(F)[C@@H](O)C[C@@]21C [FLUTICASONE PROPIONATE]
Response: 10.00

Measured values drawn from ChEMBL document CHEMBL1833833 for this set.
